Method description: gradient 5% acetonitrile 3 min, to 50% in 2 min, to 85% in 15 min, held 3 min, 100 µL/min
Cond: column: Zorbax Extend-C18 2.1 x 50 mm; eluents: water / acetonitrile, 0.1% formic acid
# if measured RP-LC retention time < 800 s: 1.0  # else: 0.0

>  <Compound>
Cn1c(C2CCN(C(=O)Nc3cc(F)cc(F)c3)CC2)cc(=O)n2nccc12

>  <Assigned label>
1.0

$$$$
>  <Compound>
O=C(Nc1cc(C(F)(F)F)cc(C(F)(F)F)c1)Nc1c(Br)cc(Br)cc1-c1nn[nH]n1

>  <Assigned label>
0.0

$$$$
>  <Compound>
Cc1nc2cc(-c3noc(-c4cccc(C#N)c4)n3)ccc2o1

>  <Assigned label>
0.0

$$$$
>  <Compound>
COc1ccc(NC(=O)c2c(F)cccc2F)c([N+](=O)[O-])c1

>  <Assigned label>
0.0

$$$$
>  <Compound>
Cc1cc(C(=O)Nc2ccc(-c3nc4ccccc4o3)cc2)c(C)o1

>  <Assigned label>
0.0

$$$$
>  <Compound>
CCC(C)N(CC(=O)N1CCc2sccc2C1COc1ccccc1OC)C(=O)COC (centres undefined)

>  <Assigned label>
0.0

$$$$
>  <Compound>
Cc1ccc2c(c1)N(CCC(C)C)N=C(C(=O)N1CCCC1)S2(=O)=O

>  <Assigned label>
0.0

$$$$
>  <Compound>
COc1cc([C@@H]2c3cc4c(c(O)c3C[C@H]3COC(=O)[C@@H]32)OCO4)cc(OC)c1OC

>  <Assigned label>
1.0

$$$$
>  <Compound>
COc1ccc(Cl)cc1C(=O)N1CCC2(CC1)N=C(c1ccc(Br)cc1)NO2

>  <Assigned label>
0.0

$$$$

###

RP-LC retention time reference
Method description: gradient 5% acetonitrile 3 min, to 50% in 2 min, to 85% in 15 min, held 3 min, 100 µL/min
Cond: column: Zorbax Extend-C18 2.1 x 50 mm; eluents: water / acetonitrile, 0.1% formic acid

>  <Compound>
COc1ccc(C2=NC3(CCN(C)CC3)NC(c3cccc(OC)c3O)C2)cc1 (stereo not given)

>  <RP-LC retention time [s]>
583

$$$$
>  <Compound>
Cn1cc(C(=O)Nc2ccc(C(F)(F)F)cc2)c2cccnc21

>  <RP-LC retention time [s]>
909

$$$$
>  <Compound>
CCC(=O)N1CCCc2ccc(NC(=O)c3cccs3)cc21

>  <RP-LC retention time [s]>
827

$$$$
>  <Compound>
Cc1cc(-c2nnc(NC(=O)c3ccc4c(c3)OCCO4)o2)c(C)o1

>  <RP-LC retention time [s]>
766

$$$$
>  <Compound>
O=S(=O)(NCc1cccnc1-c1ccc(F)cc1)c1cccc(Br)c1

>  <RP-LC retention time [s]>
800

$$$$
>  <Compound>
Cc1ccc(C)c(C(=O)N2CCc3c(c(-c4nc(C5CC5)no4)nn3C)C2)c1

>  <RP-LC retention time [s]>
854

$$$$
>  <Compound>
CCOC(=O)c1noc2ncnc(NCCc3ccc(Cl)cc3)c12

>  <RP-LC retention time [s]>
1110

$$$$
>  <Compound>
CSc1ccc(CCNC(=O)Cn2c(=O)c3cccn3c3ccc(F)cc32)cc1

>  <RP-LC retention time [s]>
897

$$$$
>  <Compound>
O=C(NCc1ccccc1OC(F)(F)F)c1ccc(N2CCOCC2)nn1

>  <RP-LC retention time [s]>
777

$$$$
>  <Compound>
Cc1noc(C2CCCCN2CC(=O)Nc2nccs2)n1 (stereo not given)

>  <RP-LC retention time [s]>
675

$$$$

###

Method description: gradient 5% acetonitrile 3 min, to 50% in 2 min, to 85% in 15 min, held 3 min, 100 µL/min
Cond: column: Zorbax Extend-C18 2.1 x 50 mm; eluents: water / acetonitrile, 0.1% formic acid

>  <Compound>
O=c1n(Cc2ccccc2)nc2n1CCN(S(=O)(=O)c1ccccc1)CC2

>  <RP-LC retention time, s>
793

$$$$
>  <Compound>
CCc1noc(NC(C)=O)c1-c1ccc(OC)c(S(=O)(=O)N2CCC(C)CC2)c1

>  <RP-LC retention time, s>
864

$$$$
>  <Compound>
O=C(Nc1ccc(Cl)cc1)C(=O)c1cn(CC(=O)N2CCOCC2)c2ccccc12

>  <RP-LC retention time, s>
959

$$$$
>  <Compound>
CCc1ccc(C(=O)NC2CCN(c3cc(-c4cccs4)[nH]n3)C2)cc1 (centres undefined)

>  <RP-LC retention time, s>
730

$$$$
>  <Compound>
COC(=O)c1ccc2c(=O)n(-c3cc(OC)cc(OC)c3)c(N3CCSCC3)nc2c1

>  <RP-LC retention time, s>
983

$$$$
>  <Compound>
CCOc1ccc(C2Cn3nnc(-c4nc(-c5ccccn5)no4)c3CO2)cc1 (centres undefined)

>  <RP-LC retention time, s>
921

$$$$
>  <Compound>
Cc1c(-c2noc(-c3cccc(F)c3)n2)nnn1Cc1ccccc1

>  <RP-LC retention time, s>
1080

$$$$
>  <Compound>
CSc1ccc(-c2nc3cnccn3c2Nc2cccc(C(=O)NCc3ccco3)c2)cc1

>  <RP-LC retention time, s>
793

$$$$
>  <Compound>
CC(C)n1cnnc1CC1CCN(C(=O)C2CCN(S(=O)(=O)N3CCOCC3)CC2)CC1

>  <RP-LC retention time, s>
614

$$$$
>  <Compound>
Cn1cc(CC(=O)NCc2ccc(Cl)cc2)c2cccnc21

>  <RP-LC retention time, s>
706

$$$$
>  <Compound>
O=C(Cc1ccc(F)cc1)NCCOc1cccc(C(F)(F)F)c1

>  <RP-LC retention time, s>
880

$$$$
>  <Compound>
Cc1oc2ncnc(N3CCCC(C(=O)NCc4ccccc4Cl)C3)c2c1C (centres undefined)

>  <RP-LC retention time, s>
892

$$$$
>  <Compound>
Cc1ccn2c(NC(=O)c3ccc([N+](=O)[O-])cc3)c(-c3ccc(F)cc3)nc2c1

>  <RP-LC retention time, s>
684

$$$$
>  <Compound>
Cc1cc(-c2nnc(-c3ccc(F)cc3)o2)c(C)n1CC(=O)NCc1ccccc1

>  <RP-LC retention time, s>
920

$$$$
>  <Compound>
O=C(CN1CCN(Cc2ccccc2)C1=O)N1CCN(c2ccccc2)CC1

>  <RP-LC retention time, s>
788

$$$$
>  <Compound>
Cn1cc(C2=CCN(S(=O)(=O)c3ccc(F)cc3)CC2)c2cccnc21

>  <RP-LC retention time, s>
949

$$$$
>  <Compound>
Cc1cccc(NS(=O)(=O)c2ccc(-c3c(C)noc3C)cc2)c1C

>  <RP-LC retention time, s>
997

$$$$
>  <Compound>
O=c1n(Cc2ccccc2F)nc2c(S(=O)(=O)N3CCCCC3)cccn12

>  <RP-LC retention time, s>
891

$$$$
>  <Compound>
Cc1cc(C)n2c(Nc3ccccc3C)c(-c3ccccc3)nc2n1

>  <RP-LC retention time, s>
728

$$$$

###

A collection of compounds and their measured RP-LC retention time
Method description: gradient 5% acetonitrile 3 min, to 50% in 2 min, to 85% in 15 min, held 3 min, 100 µL/min
Cond: column: Zorbax Extend-C18 2.1 x 50 mm; eluents: water / acetonitrile, 0.1% formic acid

>  <Compound>
O=C(CSc1ccc(N2CCCC(C(=O)NC3CC3)C2)nn1)Nc1ccccc1Br (centres undefined)

>  <RP-LC retention time [s]>
664

$$$$
>  <Compound>
COCCNC(=O)C1CCN(c2nc3ccc(-c4ccsc4)nc3s2)CC1

>  <RP-LC retention time [s]>
774

$$$$
>  <Compound>
CN(C)C(=O)c1cc2c(s1)CCC(C(=O)NC1CCN(Cc3ccccc3)CC1)C2 (centres undefined)

>  <RP-LC retention time [s]>
598

$$$$
>  <Compound>
CCn1nnc2ccc(-c3noc(Cc4ccc(OC)c(OC)c4)n3)cc21

>  <RP-LC retention time [s]>
864

$$$$
>  <Compound>
Cn1ncc(N2CCC(C(=O)N3CCc4ccccc43)C2)cc1=O (centres undefined)

>  <RP-LC retention time [s]>
714

$$$$
>  <Compound>
CC(C)C(=O)NC(c1ccc(F)cc1)c1nnc(-c2ccccc2)o1 (centres undefined)

>  <RP-LC retention time [s]>
856

$$$$
>  <Compound>
Cc1nc(C)c(C(=O)NCc2ccc3c(c2)ncn3C(C)C)s1

>  <RP-LC retention time [s]>
568

$$$$
>  <Compound>
CC1CCN(S(=O)(=O)c2ccc(-c3nnc(C(=O)N4CCCC4)o3)cc2)CC1

>  <RP-LC retention time [s]>
941

$$$$
>  <Compound>
Cc1cc(C)c(S(=O)(=O)N2CC(c3nc(-c4ccncc4)no3)C2)c(C)c1

>  <RP-LC retention time [s]>
978

$$$$
>  <Compound>
Cc1nc2cc(-c3ccccc3)nn2c(C)c1CCC(=O)N1CCN(c2ccccn2)CC1

>  <RP-LC retention time [s]>
652

$$$$
>  <Compound>
O=C(CCc1nc(CSc2nnc(-c3ccccc3)o2)no1)Nc1ccc(F)c(Cl)c1

>  <RP-LC retention time [s]>
973

$$$$
>  <Compound>
O=C(C1=CN(c2cccc(F)c2)c2cc(F)ccc2S1(=O)=O)N1CCCCC1

>  <RP-LC retention time [s]>
872

$$$$
>  <Compound>
COc1ccc(CC(=O)N2CCN(S(=O)(=O)c3cc4c5c(c3)CCC(=O)N5CCC4)CC2)cc1

>  <RP-LC retention time [s]>
786

$$$$
>  <Compound>
CCOC(=O)c1nc(N2CCCC(C)C2)c2ccccc2n1 (centres undefined)

>  <RP-LC retention time [s]>
759

$$$$
>  <Compound>
COC(=O)c1c(-c2ccccc2)noc1NCc1ccccc1

>  <RP-LC retention time [s]>
1050

$$$$
>  <Compound>
Cc1c(C(=O)N2CCN(c3ccc(Cl)cc3)CC2)sc2nc[nH]c(=O)c12

>  <RP-LC retention time [s]>
769

$$$$
>  <Compound>
Cc1ccc(N2CC(c3nc(-c4ccc(CNC(=O)C5CC5)s4)no3)CC2=O)cc1C (centres undefined)

>  <RP-LC retention time [s]>
874

$$$$
>  <Compound>
Cc1ccc(Nc2nc(C)cc(N3CCN(S(=O)(=O)c4cc(F)ccc4F)CC3)n2)cc1

>  <RP-LC retention time [s]>
797

$$$$
>  <Compound>
COc1cc(-c2nc3ncccn3c2NCc2ccc(C)cc2)ccc1OC(C)C

>  <RP-LC retention time [s]>
811

$$$$
